Provenance of the data: patent US9586963B2

EC50 overview
Target: Rev-Erb alpha (Homo sapiens, UniProt P20393)
Sequence (P20393 284-614 limits assumed): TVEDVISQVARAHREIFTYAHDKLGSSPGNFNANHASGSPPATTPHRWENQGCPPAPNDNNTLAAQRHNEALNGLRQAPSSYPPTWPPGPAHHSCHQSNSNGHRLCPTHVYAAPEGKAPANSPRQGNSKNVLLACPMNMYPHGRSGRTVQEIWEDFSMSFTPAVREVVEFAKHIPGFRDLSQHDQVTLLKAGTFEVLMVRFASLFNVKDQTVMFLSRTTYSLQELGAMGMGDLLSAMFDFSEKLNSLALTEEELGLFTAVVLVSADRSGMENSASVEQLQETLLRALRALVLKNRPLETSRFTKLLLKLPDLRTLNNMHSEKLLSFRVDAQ
Assay: M2H (mammalian two-hybrid) cellular activation assay of Rev-Erb alpha
Format: cell-based
Conditions: M2H assay, HEK293 cells, Gal4-Rev-Erb alpha / VP16-NCoR, luciferase reporter
Where a name gives a salt, the structure may show the parent alone.

A selection of reference data follows.
EC50 for COc1ccc(-c2ccc(C(F)(F)F)cc2Oc2ccc3nnc(Cl)n3n2)cn1 is 100 to 1000 nM

Sample Fc1ccc(Oc2ccc3nnc(Cl)n3n2)c(-c2cccc(CN3CCCCC3)c2)c1 [hydrochloride] ; EC50 observed: > 6000 nM

Value of EC50 reported for the molecule FC(F)(F)c1ccc(-c2cncnc2)c(Oc2ccc3nnc(Cl)n3n2)c1 is 1000 to 6000 nM

Field EC50 (entry Clc1ccc(-c2cccc(Oc3ccc4nnc(Cl)n4n3)c2)cc1 ) reads 1000 to 6000 nM

Entry COC(=O)CCNc1ccc(Oc2ccc3nnc(Cl)n3n2)c(-c2ccccc2)c1 ; EC50 = 1000 to 6000 nM

# EC50 of CC(=O)Nc1ccc(-c2ccccc2)c(Oc2ccc3nnc(Cl)n3n2)c1 = 1000 to 6000 nM

Entry FC(F)(F)c1ccc(-c2cccnc2)c(Oc2ccc3nnc(C(F)(F)F)n3n2)c1 ; EC50 = 1000 to 6000 nM

Recorded result, COc1cccc(-c2cc(F)c(F)cc2Oc2ccc3nnc(C(F)(F)F)n3n2)c1 , EC50: 1000 to 6000 nM

New cases:
So for COC(=O)c1ccc(Oc2ccc3nnc(Cl)n3n2)c(-c2ccccc2)c1 , the logged EC50 turned out to be 100 to 1000 nM

EC50 in this record for CC(=O)OCc1ccc(-c2ccccc2)c(Oc2ccc3nnc(Cl)n3n2)c1 : 100 to 1000 nM
